The reported measurements were obtained from patent US9656988B2.

Entries and their measured IC50 follow.
molecular target: BTK (Homo sapiens (Human)); assay: Btk in vitro inhibitory activity (one of Method A TR-FRET, Method B electrophoretic mobility shift, Method C radiometric filter binding); format: biochemical; details: determined using one of the methods of Example 355a, 355b and 355c; read-out: BTK IC50

Consider the worked cases shown below.
CCOc1ccc(Nc2nc(N3CCC[C@@H](NC(=O)c4ccc(OC)cc4)C3)cnc2C(N)=O)cc1 [Example 111] ... 10 to 100 nM
C[C@@H]1[C@H](NC(=O)N(C)C)CCCN1c1cnc(C(N)=O)c(Nc2ccc(C3(C)CCN(C4CC4)CC3)cc2)n1 [Example 247] ... < 10 nM
NC(=O)c1ncc(N2CCC[C@@H](NC(=O)c3cc4c(s3)CCCC4)C2)nc1Nc1ccc(C2CCN(C3CC3)CC2)cc1 [Example 316] ... < 10 nM

BTK (Homo sapiens (Human)) assay, compound C[C@@H]1[C@H](N2CCN(C)C2=O)CCCN1c1cnc(C(N)=O)c(Nc2ccc(C3(C)CCN(C4CCCC4)CC3)cc2)n1 [Example 253] , recorded IC50 = < 10 nM

Assay BTK (Homo sapiens (Human)), sample COc1ccc(C(=O)N[C@@H]2CCCN(c3cnc(C(N)=O)c(Nc4ccc(N5CCCCC5=O)cc4)n3)C2)cc1 [Example 128] , IC50 read: < 10 nM

Measured IC50 for this entry CC(C)(C)c1ccc(C(=O)N[C@@H]2CCN(c3nnc(C(N)=O)c(Nc4ccc(C(=O)N5CCOCC5)cc4)n3)C2)cc1 [Example 49] on BTK (Homo sapiens (Human)): 100 to 1000 nM

Measured on BTK (Homo sapiens (Human)), C[C@@H]1[C@H](NC(=O)N(C)C)CCCN1c1cnc(C(N)=O)c(Nc2ccc(C3(C#N)CC3)cc2)n1 [Example 240] has a documented IC50 of < 10 nM

---

target: BTK (Homo sapiens (Human), UniProt Q06187); assay: Btk in vitro inhibitory activity (one of Method A TR-FRET, Method B electrophoretic mobility shift, Method C radiometric filter binding); type: biochemical; conditions: determined using one of the methods of Example 355a, 355b and 355c; read-out: BTK IC50
Sequence (Q06187 whole entry): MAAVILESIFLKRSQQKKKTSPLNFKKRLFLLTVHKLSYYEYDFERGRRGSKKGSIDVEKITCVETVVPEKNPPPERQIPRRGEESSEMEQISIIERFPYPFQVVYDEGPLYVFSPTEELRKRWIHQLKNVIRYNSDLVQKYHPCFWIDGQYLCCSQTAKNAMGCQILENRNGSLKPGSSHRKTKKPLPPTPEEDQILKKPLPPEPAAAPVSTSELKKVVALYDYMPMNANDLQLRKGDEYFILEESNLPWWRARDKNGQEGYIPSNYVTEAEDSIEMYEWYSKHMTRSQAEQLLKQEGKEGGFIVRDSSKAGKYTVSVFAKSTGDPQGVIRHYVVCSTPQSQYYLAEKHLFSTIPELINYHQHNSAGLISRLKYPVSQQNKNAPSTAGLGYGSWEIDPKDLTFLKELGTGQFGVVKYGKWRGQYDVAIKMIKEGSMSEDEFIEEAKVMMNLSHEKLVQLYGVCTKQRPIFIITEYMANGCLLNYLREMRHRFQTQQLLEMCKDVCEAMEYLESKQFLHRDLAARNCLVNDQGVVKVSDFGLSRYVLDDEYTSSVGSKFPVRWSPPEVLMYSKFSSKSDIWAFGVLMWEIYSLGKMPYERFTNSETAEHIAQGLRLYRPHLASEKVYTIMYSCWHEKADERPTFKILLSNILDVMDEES
Measurement type: IC50

Some solved cases for reference:
NC(=O)c1ncc(N2CCC[C@@H](NC(=O)c3ccc(-c4ccccc4)nc3)C2)nc1Nc1ccc(C2CCN(C3CC3)CC2)cc1 [Example 319] ... < 10 nM
CN(C)C/C=C/C(=O)N1CCC[C@@H](N(C)c2cnc(C(N)=O)c(Nc3ccc(Oc4ccccc4)cc3)n2)C1 [Example 158] ... < 10 nM
CN(C/C=C/C(=O)N1CCC[C@@H](Nc2nnc(C(N)=O)c(Nc3ccc(S(C)(=O)=O)cc3)n2)C1)C1CC1 [Example 107] ... < 10 nM
NC(=O)c1nnc(N2CCC[C@@H](NC(=O)N3CCCCC3)C2)nc1Nc1ccc(C2CCN(C3CCCC3)CC2)cc1 [Example 336] ... < 10 nM
NC(=O)c1nnc(N2CCC[C@@H](NC(=O)c3ccncc3)C2)nc1Nc1ccc(C(=O)N2CCOCC2)cc1 [Example 14] ... < 10 nM

Sample C=CC(=O)N1CCC[C@@H](Nc2nnc(C(N)=O)c(Nc3ccc(C(=O)N4CCOCC4)cc3)n2)C1 [Example 65] ; IC50 observed: < 10 nM

The reported IC50 of the compound CN1CCN([C@@H]2CCCN(c3cnc(C(N)=O)c(Nc4ccc(C5CCN(C6CC6)CC5)cc4)n3)C2)C1=O [Example 259] was < 10 nM

Record NC(=O)c1ncc(N2CCC[C@@H](NC(=O)N3CCCCC3)C2)nc1Nc1ccc(C2CCN(C=O)CC2)cc1 [Example 148] . Reported IC50: < 10 nM

According to the records, this compound COc1ccc(C(=O)N[C@@H]2CCCN(c3cnc(C(N)=O)c(Nc4ccc(N5CCC(C(=O)N(C)C)CC5)cc4)n3)C2)cc1 [Example 144] displays IC50 of < 10 nM

Reported IC50 ( CC(C)(C)c1ccc(C(=O)N[C@@H]2CCCN(c3nnc(C(N)=O)c(Nc4cncc(F)c4)n3)C2)cc1 [Example 52] ) = 100 to 1000 nM

Consider NC(=O)c1ncc(N2CCC[C@@H](NC(=O)C3CC3)C2)nc1Nc1ccc(C2CCN(C3CCCC3)CC2)cc1 [Example 299] . Its measured IC50 is < 10 nM

The measured IC50 associated with NC(=O)c1nnc(N2CCC[C@@H](NC(=O)c3nc4ccccc4o3)C2)nc1Nc1ccc(C(=O)N2CCOCC2)cc1 [Example 97] reads 10 to 100 nM

// field: IC50; key: CC#CC(=O)N1CCC[C@@H](N(C)c2cnc(C(N)=O)c(Nc3ccc(C(=O)N4CCOCC4)cc3)n2)C1 [Example 157] ; value = < 10 nM

Record summary for CN(C)C(=O)N[C@@H]1CCCN(c2cnc(C(N)=O)c(Nc3ccc(C4(C#N)CC4)cc3)n2)C1 [Example 199] : reported IC50 = < 10 nM

// IC50 lookup, compound = C[C@@H]1[C@H](N2CCCN(C)C2=O)CCCN1c1cnc(C(N)=O)c(Nc2ccc(C3CCN(C4CCCC4)CC3)cc2)n1 [Example 281] , result: < 10 nM
